- target_or_test_system: dopamine D2 receptors (Homo sapiens (Human), UniProt P14416)
- Sequence (P14416 whole entry): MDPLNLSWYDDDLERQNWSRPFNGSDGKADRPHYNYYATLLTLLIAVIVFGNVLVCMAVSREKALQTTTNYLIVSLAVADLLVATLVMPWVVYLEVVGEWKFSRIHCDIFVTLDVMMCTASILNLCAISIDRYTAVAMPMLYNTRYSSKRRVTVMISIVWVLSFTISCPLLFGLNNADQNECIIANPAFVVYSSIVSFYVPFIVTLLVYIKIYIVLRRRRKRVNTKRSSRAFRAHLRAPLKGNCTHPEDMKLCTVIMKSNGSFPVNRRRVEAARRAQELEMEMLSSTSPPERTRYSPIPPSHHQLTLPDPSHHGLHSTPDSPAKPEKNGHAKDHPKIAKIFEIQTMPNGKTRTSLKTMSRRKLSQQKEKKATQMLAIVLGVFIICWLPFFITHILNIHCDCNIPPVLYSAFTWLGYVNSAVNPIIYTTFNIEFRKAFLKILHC
- run_description: Dopamine D2 receptor Gαi1 BRET (G protein trimer dissociation);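 note: transfected cells co-expressing D2 receptor, Gαi1-Rluc, Gβ3 and Gγ9-GFP, BRET with coelenterazine 400a at 5 µM read as G protein trimer dissociation, graded drug concentrations in duplicate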
- Type: cell-based
- cond: D2 receptor, G protein pathway; read-out: Gαi1 BRET EC50
Param label: returns condition met when EC50 < 200 nM, returns condition not met otherwise, including exact equality.

For this molecule, is EC50 lower than 200 nM? c1cc2c3c(csc3c1)CC1CN(CCCCOc3ccc4scnc4c3)CCN21 (centres unmarked) [Compound I-21]
condition met

For this molecule, is EC50 lower than 200 nM? CCCN1CCN2c3cccc4scc(c34)CC2C1 (centres unmarked) [Compound I-2]
condition not met

For this molecule, is EC50 lower than 200 nM? O=C1c2ccccc2CN1CCCCN1CCN2c3cccc4scc(c34)CC2C1 (centres unmarked) [Compound I-22]
condition met

For this molecule, is EC50 lower than 200 nM? O=C1CCc2ccc(OCCCN3CCN4c5cccc6scc(c56)CC4C3)cc2N1 (centres unmarked) [Compound I-18]
condition met

For this molecule, is EC50 lower than 200 nM? O=C1[C@H]2CCCC[C@H]2C(=O)N1CCCCN1CCN2c3cccc4scc(c34)CC2C1 (some centres unmarked) [Compound I-26]
condition not met

---

Please respond with reported Emax for every item in the list.
- target_or_test_system: 5-HT2A receptor (Homo sapiens (Human), UniProt P28223)
- Sequence (P28223 whole entry): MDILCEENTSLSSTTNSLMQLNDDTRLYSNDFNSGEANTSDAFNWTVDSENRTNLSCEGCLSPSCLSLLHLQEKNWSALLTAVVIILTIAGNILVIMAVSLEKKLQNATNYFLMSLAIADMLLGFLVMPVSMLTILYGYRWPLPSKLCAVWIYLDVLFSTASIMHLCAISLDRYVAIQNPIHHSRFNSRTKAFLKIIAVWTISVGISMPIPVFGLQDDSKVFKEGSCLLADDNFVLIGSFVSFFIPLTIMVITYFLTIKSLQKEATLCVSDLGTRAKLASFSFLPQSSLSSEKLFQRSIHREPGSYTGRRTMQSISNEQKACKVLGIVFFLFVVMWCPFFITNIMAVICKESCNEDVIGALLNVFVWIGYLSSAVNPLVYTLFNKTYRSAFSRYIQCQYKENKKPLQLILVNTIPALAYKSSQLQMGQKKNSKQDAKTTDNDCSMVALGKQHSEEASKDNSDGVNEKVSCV
- run_description: 5-HT2A receptor β-arrestin2 BRET (recruitment);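 note: cells co-expressing Rluc-tagged 5-HT2A receptor, GRK2 and GFP2-tagged β-arrestin2, read by BRET with coelenterazine 400a (5 µM) across graded drug concentrations in duplicate, signal reflecting β-arrestin2 membrane recruitment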
- Type: cell-based
- cond: 5-HT2A receptor, β-arrestin2 pathway
Kindly provide the numeric value in % only, without the unit symbol.

Input Fc1ccc(CCN2CCN3c4cccc5scc(c45)CC3C2)cc1 (stereo not shown) [Compound I-5] . Output Emax: 27.3

Input COc1cc2c(cc1OC)C(=O)N(CCCCN1CCN3c4cccc5scc(c45)CC3C1)C2 (stereo not shown) [Compound I-23] . Output Emax: 138

Input CN(C)C(=O)N[C@H]1CC[C@H](CCN2CCN3c4cccc5scc(c45)CC3C2)CC1 (stereo partly shown) [Compound I-27] . Output Emax: 34.7

Input c1ccc(OCCN2CCN3c4cccc5scc(c45)CC3C2)cc1 (stereo not shown) [Compound I-15] . Output Emax: 10

---

Please respond with reported pEC50 for every item in the list.
- target_or_test_system: 5-HT1A receptor (Homo sapiens (Human), UniProt P08908)
- Sequence (P08908 whole entry): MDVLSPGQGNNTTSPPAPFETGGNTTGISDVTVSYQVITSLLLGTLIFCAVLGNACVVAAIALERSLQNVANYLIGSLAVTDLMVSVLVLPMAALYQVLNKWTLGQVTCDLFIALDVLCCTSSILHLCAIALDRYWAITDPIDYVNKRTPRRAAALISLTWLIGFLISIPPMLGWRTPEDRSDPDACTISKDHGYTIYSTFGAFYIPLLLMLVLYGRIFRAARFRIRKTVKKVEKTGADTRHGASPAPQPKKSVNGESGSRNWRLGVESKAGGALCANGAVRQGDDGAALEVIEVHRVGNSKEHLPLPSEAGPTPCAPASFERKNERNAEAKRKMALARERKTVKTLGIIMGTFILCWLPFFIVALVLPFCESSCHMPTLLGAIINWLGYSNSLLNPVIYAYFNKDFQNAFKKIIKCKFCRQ
- run_description: 5-HT1A receptor Gαi1 BRET (G protein trimer dissociation)
- Assay type: cell-based
- cond: 5-HT1A receptor, G protein pathway; read-out: Gαi1 BRET EC50
Formally, pEC50 is defined as -log10 of the concentration c, with c in mol/L.

Input O=C1c2ccccc2CCCN1CCCCN1CCN2c3cccc4scc(c34)CC2C1 (stereo not drawn) . Output pEC50: 5.88

Input O=C(CCCN1CCN2c3cccc4scc(c34)CC2C1)c1ccc(F)cc1 (stereo not drawn) . Output pEC50: 5.41

Input c1cc2c3c(csc3c1)CC1CN(CCCCOc3ccc4scnc4c3)CCN21 (stereo not drawn) . Output pEC50: 5.09

Input CN(C)C(=O)N[C@H]1CC[C@H](CCN2CCN3c4cccc5scc(c45)C[C@@H]3C2)CC1 [(+)-I-27] . Output pEC50: 6.69

Input O=C1NCCN1c1cccc(CN2CCN3c4cccc5scc(c45)CC3C2)c1 (stereo not drawn) . Output pEC50: 4.84

Input O=C1c2ccccc2CN1CCCCN1CCN2c3cccc4scc(c34)CC2C1 (stereo not drawn) . Output pEC50: 5.83

Input CCCN1CCN2c3cccc4scc(c34)CC2C1 (stereo not drawn) . Output pEC50: 5.11

Input O=C(CN1CCN2c3cccc4scc(c34)CC2C1)c1ccc(F)cc1 (stereo not drawn) . Output pEC50: 5.14

Input COc1cc2c(cc1OC)C(=O)N(CCCCN1CCN3c4cccc5scc(c45)CC3C1)C2 (stereo not drawn) . Output pEC50: 5.17

Input O=C1CCc2ccc(OCCCCN3CCN4c5cccc6scc(c56)CC4C3)cc2N1 (stereo not drawn) . Output pEC50: 5.81

Input O=C(NCCN1CCN2c3cccc4scc(c34)CC2C1)C1CCOCC1 (stereo not drawn) . Output pEC50: 5.70

Input Fc1ccc(CCN2CCN3c4cccc5scc(c45)CC3C2)cc1 (stereo not drawn) . Output pEC50: 5.50

Input c1cc2c3c(csc3c1)CC1CN(CCCOc3ccc4c(c3)OCO4)CCN21 (stereo not drawn) . Output pEC50: 5.57

Input O=c1ccc2ccc(OCCCCN3CCN4c5cccc6scc(c56)CC4C3)cc2[nH]1 (stereo not drawn) . Output pEC50: 5.43

Input O=C(N[C@H]1CC[C@H](CCN2CCN3c4cccc5scc(c45)CC3C2)CC1)N1CCCC1 (stereo partly drawn) . Output pEC50: 6.85

Input c1csc(CCN2CCN3c4cccc5scc(c45)CC3C2)c1 (stereo not drawn) . Output pEC50: 5.49

Input CN(C)C(=O)N[C@H]1CC[C@H](CCN2CCN3c4cccc5scc(c45)CC3C2)CC1 (stereo partly drawn) [Compound I-27] . Output pEC50: 6.79

Input Fc1ccc(-c2cncc(CN3CCN4c5cccc6scc(c56)CC4C3)c2)cc1 (stereo not drawn) . Output pEC50: 4.79

---

- target_or_test_system: 5-HT1A receptor (Homo sapiens (Human), UniProt P08908)
- run_description: 5-HT1A receptor Gαi1 BRET (G protein trimer dissociation);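 note: cells transiently co-expressing 5-HT1A receptor, luciferase-tagged Gαi1, Gβ3 and GFP-tagged Gγ9, seeded in 96-well plates for BRET measurement of G protein signaling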
- Type: cell-based
- cond: 5-HT1A receptor, G protein pathway
Cut-off 80% on Emax, inclusive. At or above means True; below means False.

For this molecule, is measured Emax 80% or higher? O=C(CN1CCN2c3cccc4scc(c34)CC2C1)c1ccc(F)cc1 (stereo not shown)
False

For this molecule, is measured Emax 80% or higher? O=C(NCCN1CCN2c3cccc4scc(c34)CC2C1)c1ccc(F)cc1 (stereo not shown)
True

For this molecule, is measured Emax 80% or higher? OCCN1CCN2c3cccc4scc(c34)CC2C1 (stereo not shown)
False

For this molecule, is measured Emax 80% or higher? Fc1ccc(-c2cncc(CN3CCN4c5cccc6scc(c56)CC4C3)c2)cc1 (stereo not shown)
False

For this molecule, is measured Emax 80% or higher? O=C1NCCN1c1cccc(CN2CCN3c4cccc5scc(c45)CC3C2)c1 (stereo not shown)
False

For this molecule, is measured Emax 80% or higher? O=C1CCc2ccc(OCCCCN3CCN4c5cccc6scc(c56)CC4C3)cc2N1 (stereo not shown)
False

For this molecule, is measured Emax 80% or higher? O=C1[C@H]2CCCC[C@H]2C(=O)N1CCCCN1CCN2c3cccc4scc(c34)CC2C1 (stereo partly shown)
True

For this molecule, is measured Emax 80% or higher? c1csc(CCN2CCN3c4cccc5scc(c45)CC3C2)c1 (stereo not shown)
True

For this molecule, is measured Emax 80% or higher? CCCN1CCN2c3cccc4scc(c34)CC2C1 (stereo not shown)
False

For this molecule, is measured Emax 80% or higher? O=C(N[C@H]1CC[C@H](CCN2CCN3c4cccc5scc(c45)CC3C2)CC1)N1CCCC1 (stereo partly shown)
False

For this molecule, is measured Emax 80% or higher? c1cc2c3c(csc3c1)CC1CN(CCCOc3ccc4c(c3)OCO4)CCN21 (stereo not shown)
True

For this molecule, is measured Emax 80% or higher? O=C1c2ccccc2CN1CCCCN1CCN2c3cccc4scc(c34)CC2C1 (stereo not shown)
True

For this molecule, is measured Emax 80% or higher? CN(C)C(=O)N[C@H]1CC[C@H](CCN2CCN3c4cccc5scc(c45)CC3C2)CC1 (stereo partly shown)
False

For this molecule, is measured Emax 80% or higher? O=C(CCCN1CCN2c3cccc4scc(c34)CC2C1)c1ccc(F)cc1 (stereo not shown)
False

For this molecule, is measured Emax 80% or higher? COc1cc2c(cc1OC)C(=O)N(CCCCN1CCN3c4cccc5scc(c45)CC3C1)C2 (stereo not shown)
False

For this molecule, is measured Emax 80% or higher? c1cc2c3c(csc3c1)CC1CN(CC3CC3)CCN21 (stereo not shown)
False

For this molecule, is measured Emax 80% or higher? c1ccc(OCCN2CCN3c4cccc5scc(c45)CC3C2)cc1 (stereo not shown)
False

For this molecule, is measured Emax 80% or higher? O=C(N[C@H]1CC[C@H](CCN2CCN3c4cccc5scc(c45)CC3C2)CC1)N1CCCCC1 (stereo partly shown)
False

For this molecule, is measured Emax 80% or higher? c1cc2c3c(csc3c1)CC1CN(CCCCOc3ccc4scnc4c3)CCN21 (stereo not shown)
False

For this molecule, is measured Emax 80% or higher? Fc1ccc(CCN2CCN3c4cccc5scc(c45)CC3C2)cc1 (stereo not shown)
True

For this molecule, is measured Emax 80% or higher? O=c1ccc2ccc(OCCCN3CCN4c5cccc6scc(c56)CC4C3)cc2[nH]1 (stereo not shown)
True

For this molecule, is measured Emax 80% or higher? O=C(NCCN1CCN2c3cccc4scc(c34)CC2C1)C1CCOCC1 (stereo not shown)
True
